# System: Noggin (protein binding on small-molecule microarray)
# method-summary: small molecules binding Noggin protein – biochemical, 635/667 nm fluorescence, primary screen (AID 1095);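 also: score merges 667 nm feature fluorescence with signal to noise over triplicate slides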
# measurement-setup: 635 nm fluorescence, higher = more signal
Measured composite z-score, listed per entry for reference.
experimental-readout: composite z-score

{"line-notation": "O=C1O[C@H](c2ccccc2)[C@H](c2ccccc2)N2[C@H]1[C@@H](C(=O)N1CCN(c3ncccn3)CC1)[C@]1(C(=O)Nc3ccc(C#CCCO)cc31)[C@H]2c1ccc(OCCO)cc1", "experimental-readout": "composite z-score", "value-reported": 1.47}
{"line-notation": "Cc1ccc(N2C(=O)c3ccccc3[C@](C)(C(=O)NC(C)C)[C@@H]2c2ccc(CO)cc2)nc1", "experimental-readout": "composite z-score", "value-reported": -2.13}
{"line-notation": "COCCOC(=O)N1C(=O)[C@@]2(c3cc(C#Cc4ccc(OC)cc4)ccc31)[C@H](c1ccc(OCCO)cc1)N1[C@H](c3ccccc3)[C@H](c3ccccc3)OC(=O)[C@H]1[C@@H]2C(N)=O", "experimental-readout": "composite z-score", "value-reported": 1.45}
{"line-notation": "COC(=O)[C@@]1(Cc2ccc(F)cc2)[C@H]2c3cc(C(=O)N(C)C)n(CCSCCO)c3C[C@H]2CN1C(=O)c1ccccc1", "experimental-readout": "composite z-score", "value-reported": -0.443}
{"line-notation": "COC(=O)[C@@]1(Cc2ccc(OC)cc2)[C@H]2c3cc(C(=O)N4CCCC4)n(CCF)c3C[C@H]2CN1C(=O)c1ccccc1", "experimental-readout": "composite z-score", "value-reported": -0.183}
{"line-notation": "CC(C)C[C@@H]1NC(=O)[C@@H]2C[C@H](C(=O)NCc3ccc(F)cc3)[C@H](c3ccc(O)cc3)N2C1=O", "experimental-readout": "composite z-score", "value-reported": 0.479}
